Just for reference, paper PMC8196545 is where these values come from.

target: HIV-1 NL4-3 Env on infected cells (HIV-1 group M subtype B, NL4-3 (pNL4-3 …, strain))
measurement.type: binding result

{"binder": "c1897 (antibody, V domains shown) VH: EVQLVQSGAEVKKPGSSVKVSCKGSGGTLNMFALSWVRQAPGQGLEWVGGIIPSFGTTNYAQKFEGRVTITADDSADESTATVHMELSSLRRDDTAVYYCARESSGRADDSLIGYFDRQGEYYFDFWGQGTLVTVSS VL: DIQMTQSPSTLSASIGDRVTITCRASQSISTLLAWYQQKPGKAPKLLISKASSLQSGVSARFSGSGSGTEFTLTINSLQPDDFATYSCQQYNSHPVTFGQGTKLEIK", "measurement.type": "binding result", "observed.measurement": "binds"}
{"binder": "c31461 (antibody, V domains shown) VH: QLQLQESGPGLVKPSETLSLTCSASGVSIGGGSSFLGWIRQPPGMGLEWIVTHYSAAKIYYNPSLQSRVITSLDTSKTQFSLKLTSMTATDTAIYYCARGNWQLQAFDSWGQGILVTVSS VL: DIQMTQSPSTLSASVGDRVTITCRASQDIRSWLAWYQQKPGEAPKLLIYTASRLHSGVPSRFSGSGSGTEFTLTISSLQPDDFATYYCQQHNSYSGTFGQGTKVEIK", "measurement.type": "binding result", "observed.measurement": "binds"}
{"binder": "c29323 (antibody, V domains shown) VH: QVQLQESGPGLVRPSETLSLTCVVSGDSITRNYWSWLRQPPGKTLEWIGFMYDSGTVNYNPSLQSRVSISVDTSNNQFFLRLTSVTAADTAVYYCARHPSRGSDYDSATGDTYYYYYGMDVWGPGTSVVVSS VL: DIQLTQSPPSLSASVGDRIVISCRATRDIGTSLNWYQQKPGQSPKLLIVAASTLESGVPSRFSAAGSATHFTLTISALQHDDVATYFCQQYLSLPLTFSGGTRVDLR", "measurement.type": "binding result", "observed.measurement": "binds"}
